The measurements presented in this section are drawn from ChEMBL document CHEMBL1146277.

assay.explanation: Half life in dog
Type: ADME, organism-based, Canis lupus familiaris
condition.parameters: in vivo
measured.endpoint: half-life (h)

>  <smiles.str>
O=C(O)c1cccc(C2=C(c3cc(Cl)ccc3OCc3ccc(F)cc3F)CCC2)n1

>  <measured.endpoint>
half-life

>  <val>
2

$$$$

----------
// endpoint pIC50 / system Prostaglandin E2 receptor EP3 subtype (Homo sapiens, UniProt P43115)
pIC50: −log10 of the molar value.
measured.endpoint: pIC50

>  <smiles.str>
CS(=O)(=O)c1ccc(OCc2ccc(F)cc2F)c(C2=C(c3cccc(C(=O)O)c3)CCC2)c1

>  <measured.endpoint>
pIC50

>  <val>
< 5.50

$$$$
>  <smiles.str>
COc1ccc(COc2ccc(Br)cc2C2=C(c3cccc(C(=O)O)c3)CCC2)cc1

>  <measured.endpoint>
pIC50

>  <val>
< 5.50

$$$$
>  <smiles.str>
O=C(O)c1cccc(C2=C(c3cc(Cl)ccc3OCc3ccccc3)CCC2)c1

>  <measured.endpoint>
pIC50

>  <val>
< 5.50

$$$$
>  <smiles.str>
CSc1ccc(OCc2ccc(F)cc2)c(C2=C(c3cccc(C(=O)O)c3)CCC2)c1

>  <measured.endpoint>
pIC50

>  <val>
< 5.50

$$$$
>  <smiles.str>
CSc1ccc(OCc2ccc(F)cc2F)c(C2=C(c3cccc(C(=O)O)c3)CCC2)c1

>  <measured.endpoint>
pIC50

>  <val>
< 5.50

$$$$
>  <smiles.str>
N#Cc1ccc(OCc2ccccc2)c(C2=C(c3cccc(C(=O)O)c3)CCC2)c1

>  <measured.endpoint>
pIC50

>  <val>
< 5.50

$$$$
>  <smiles.str>
N#Cc1ccc(OCc2ccc(Cl)cc2)c(C2=C(c3cccc(C(=O)O)c3)CCC2)c1

>  <measured.endpoint>
pIC50

>  <val>
< 5.50

$$$$
>  <smiles.str>
O=C(O)c1cccc(C2=C(c3ccccc3OCc3ccc(F)cc3F)CCC2)c1

>  <measured.endpoint>
pIC50

>  <val>
< 5.50

$$$$
